Data provenance is the supplement of paper PMC7125110.

B1: glmS ribozyme (parent)
chain: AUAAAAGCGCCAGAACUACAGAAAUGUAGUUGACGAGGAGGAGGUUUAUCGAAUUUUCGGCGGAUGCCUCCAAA

# Variants of: B1
# method: self-cleavage kobs at 640 uM GlcN6P; higher = faster cleavage; RNA array
# test.parameters: with glucosamine-6-phosphate
Fewer inactive variants are shown than the library holds.
The reader will find reported self-cleavage kobs at 640 uM GlcN6P values listed item by item below.
recorded.metric: self-cleavage kobs at 640 uM GlcN6P

sequence_chain="AUAAAAGAGCCAGAACUACAGAAAUGUAGUUGCCUAGGAGGAGGUUUAUCGAAUUUUCGGCGUAUGCCUCCAAA [C8A A33C G35U G63U]" recorded_metric="self-cleavage kobs at 640 uM GlcN6P" result="< 1e-05 s⁻¹"
sequence_chain="AUAAAAUCACCAGAACUACAGAAAUGUAGUUGACGAGGACGAGGUUUAUCGAAUUUUCGGCGGAUGCCUCCAAA [G7U G9A G40C]" recorded_metric="self-cleavage kobs at 640 uM GlcN6P" result="< 1e-05 s⁻¹"
sequence_chain="AUAAAAGCGCCAGAACUACAGAAAUGUAGUUGACGAGGAGGAGCUUUAUCGGAGUUUCGGCGGAUGCCUCCAAA [G44C A52G U54G]" recorded_metric="self-cleavage kobs at 640 uM GlcN6P" result="< 1e-05 s⁻¹"
sequence_chain="AUAAAAGCGCCAGAACUACAGAAAUGUAGUUGACGAAGAGGAGGUUUAUCGAAUUUUCGGCGGAUGCCUUCAAA [G37A C70U]" recorded_metric="self-cleavage kobs at 640 uM GlcN6P" result="0.000383 s⁻¹"
sequence_chain="AUAAAAGCGCCAGAACUACAGAAAUGUAGUUGACGAUGAGGAGGUUUAUCGAAUUUUCUGCGAAUGCCUCCAAA [G37U G59U G63A]" recorded_metric="self-cleavage kobs at 640 uM GlcN6P" result="< 1e-05 s⁻¹"
sequence_chain="AUAAAAGCGCCAGAACUACAGAAAUGUAGUUGACGAGGAGGAUGUUUACCGAAUUUUCGGCGGAUGCCUCCAAA [G43U U49C]" recorded_metric="self-cleavage kobs at 640 uM GlcN6P" result="< 1e-05 s⁻¹"
sequence_chain="AUAAAAGCGCCAGAACUACAGAAAUGUAGUGGACGAGGAGGAGGUUUAUCGAAUUUUCGGCAGAUGCCUCCAAA [U31G G62A]" recorded_metric="self-cleavage kobs at 640 uM GlcN6P" result="< 1e-05 s⁻¹"
sequence_chain="AUAAAAGCGCCAGACCUACAGAAAUGUAGUUGACGAGGAGGAGGUUUAUCGACUUUUCGGCGGAUGCCUCCAAA [A15C A53C]" recorded_metric="self-cleavage kobs at 640 uM GlcN6P" result="0.000308 s⁻¹"
sequence_chain="AUAAAAGCGCCAGAACUACAGAAAUGUAAUUGACGAGGAGGAGGUUGAUCGAGUUUUCGGUGGAAGCCUCCAAA [G29A U47G A53G C61U U65A]" recorded_metric="self-cleavage kobs at 640 uM GlcN6P" result="< 1e-05 s⁻¹"
sequence_chain="AUAAAAGCGCCAGAACUACAGAAAUGUAGUUGACGAGGAGGAAGUUAAUCGACUUUUCCGCGGAUGCCUCCAAA [G43A U47A A53C G59C]" recorded_metric="self-cleavage kobs at 640 uM GlcN6P" result="< 1e-05 s⁻¹"
sequence_chain="AUAAAAGCGCCAGAACUACAGAAAUGUAGUUGACGAGGAGGAGGGUUAUCGAAUCUUCGGCGGAUGCCUCCAAA [U45G U55C]" recorded_metric="self-cleavage kobs at 640 uM GlcN6P" result="0.00131 s⁻¹"
sequence_chain="AUAAAAGCGCCCGAACUACAGAAAUGUAGUUGACGAGGAGGAGGUUUAUCGAAUUUUCGGCGGAUCCCUACAAA [A12C G66C C70A]" recorded_metric="self-cleavage kobs at 640 uM GlcN6P" result="3.9e-05 s⁻¹"
sequence_chain="AUAAAAGCGCCAGAACUACAGAAAUGUAGUUGACGAGGAGGAGGUUUAUCGAAUUUUCGACUGAUGCCUCCAAA [G60A G62U]" recorded_metric="self-cleavage kobs at 640 uM GlcN6P" result="< 1e-05 s⁻¹"
sequence_chain="AUAAAAGCGCCAGAACUACAGAAAUGUAGUGGACGACGAGGAGGGUUAUCGAAUUUUCGGCGGAUGCCUUCAAA [U31G G37C U45G C70U]" recorded_metric="self-cleavage kobs at 640 uM GlcN6P" result="< 1e-05 s⁻¹"
sequence_chain="AUAAAAGCGCCAGAACUACAGAAAUGUAGUUGGCGAGGAGGAGGUUUAUCGGAUUUUCGGCGGAGGCCUCCAAA [A33G A52G U65G]" recorded_metric="self-cleavage kobs at 640 uM GlcN6P" result="< 1e-05 s⁻¹"
sequence_chain="AUAAAAGCGCCAGAACUACAGAAAUGUAGUUGACGAGGAGGAGGUUUAUCGAGUUUUAGGCGGAUGCCUCCAAA [A53G C58A]" recorded_metric="self-cleavage kobs at 640 uM GlcN6P" result="0.000129 s⁻¹"
sequence_chain="AUAAAAGCGCCAGAACUACAUAAAUGUAGUUGACGAGGAGGAGGUUUAUCGAAUUUUCGGCGGAUGCCUGCAAA [G21U C70G]" recorded_metric="self-cleavage kobs at 640 uM GlcN6P" result="0.000253 s⁻¹"
sequence_chain="AUAAAAGCGCCAGAACUACAGAAAUGUAGUUGACCAGGAGGAGGUUUAUCGAAUUUUCGGCAGAUGCCUCCAAA [G35C G62A]" recorded_metric="self-cleavage kobs at 640 uM GlcN6P" result="< 1e-05 s⁻¹"
sequence_chain="AUAAAAGCGCCAGAACUACAGAAAUGUAGUUGACGAGGAGGAGGUUUAUCGCAUUUUGGGCGGAUGCCUCCAAA [A52C C58G]" recorded_metric="self-cleavage kobs at 640 uM GlcN6P" result="< 1e-05 s⁻¹"
sequence_chain="AUAAAAGGGCCAGAACUACAGAAAUGUAGUUGACGAGGAGAAGGUUUAUCGUAUUUUCGGCGGAUGCCUCCAAA [C8G G41A A52U]" recorded_metric="self-cleavage kobs at 640 uM GlcN6P" result="< 1e-05 s⁻¹"
sequence_chain="AUAAAAGCGCCAGAACUACAGAAAUGUAGUUGACGCGGAGGAGGUUUAUCGAAUUUUUGGCGGAUGCCUCCAAA [A36C C58U]" recorded_metric="self-cleavage kobs at 640 uM GlcN6P" result="< 1e-05 s⁻¹"
sequence_chain="AUAAAAGCGCCAGAACUACAGAAAUGUAGUUGUCGAGGAGGAGGUUUAUCGAAUUUUCGGCGGAUGCCUCCAAA [A33U]" recorded_metric="self-cleavage kobs at 640 uM GlcN6P" result="2.78e-05 s⁻¹"
sequence_chain="AUAAAAGCGCCGGAACUACAGAAAUGUAGUUGACGAGGAGGAGGUUGAUAGAAUUUUCGGCGGAUGCGUCCAAA [A12G U47G C50A C68G]" recorded_metric="self-cleavage kobs at 640 uM GlcN6P" result="0.000111 s⁻¹"
sequence_chain="AUAAAAGCGCCAGAACUACAGAAAUGUAGUUGACGAGGAGGCGGUUCAUCGAAUUUUCGGCGGAUGCCUCCAAA [A42C U47C]" recorded_metric="self-cleavage kobs at 640 uM GlcN6P" result="< 1e-05 s⁻¹"
sequence_chain="AUAAAAGCGCCAGAACUACAGAAAUGUAGUUGACGAGGAGGAGGUUUAUCGAAUUCUCGGUGGAUGCCUCCAAA [U56C C61U]" recorded_metric="self-cleavage kobs at 640 uM GlcN6P" result="< 1e-05 s⁻¹"
sequence_chain="AUAAAAGCGCCAGAACUACAGAAAUGUAGUUGACGAGGAGGACGUUUAUCGAAUAUUCGGCGGAUGCCUCCAAA [G43C U55A]" recorded_metric="self-cleavage kobs at 640 uM GlcN6P" result="< 1e-05 s⁻¹"
sequence_chain="AUAAAAGGGCCAGAACUACAGAAAUGUAGUUUACGAGGAAGAGCUUUAUCGAAUUUUUGGCGGAUGCCUCCAAA [C8G G32U G40A G44C C58U]" recorded_metric="self-cleavage kobs at 640 uM GlcN6P" result="< 1e-05 s⁻¹"
sequence_chain="AUAAAAGCGCCAGAACUACAGAAAUGUAGUUAACGAGGAGGGCGUUUAUCUAAUUUUCGGCGGAUCCCUCCAAA [G32A A42G G43C G51U G66C]" recorded_metric="self-cleavage kobs at 640 uM GlcN6P" result="< 1e-05 s⁻¹"
sequence_chain="AUAAAAGCGCCAGAACUACAGAAAUGUAGUUGACGAGGAGGAGGUUUAACGAAUUUUCGGCGGAUGCCUCUAAA [U49A C71U]" recorded_metric="self-cleavage kobs at 640 uM GlcN6P" result="< 1e-05 s⁻¹"
sequence_chain="AUAAAAGCGACAGAACUACAGAAAUGUAGUUGACGAGGAGGAGGUUGAUCGAAUUUUCGGCGGAUGCCUCCAAA [C10A U47G]" recorded_metric="self-cleavage kobs at 640 uM GlcN6P" result="< 1e-05 s⁻¹"
sequence_chain="AUAAAAGCGCAAGAACUACAGAAAUGUAGUUGACGAGGAGGAGGUUUAUCGAAUUUUCGGCGAAUGCCUCCAAA [C11A G63A]" recorded_metric="self-cleavage kobs at 640 uM GlcN6P" result="< 1e-05 s⁻¹"
sequence_chain="AUAAAAGCGCCAGAACUACAGAAAUGUAGUUGACGAGGAGGAGGUUUAUCGAGUUUACGGCGGAUGCCUCCAAA [A53G U57A]" recorded_metric="self-cleavage kobs at 640 uM GlcN6P" result="4.7e-05 s⁻¹"
sequence_chain="AUAAAAGCGCCAGAACUACAGAAAUGUAGUUGACGAGGAAGGGGUAUAUCGAAUUUUCGGCGGAUGCCUCCAAA [G40A A42G U46A]" recorded_metric="self-cleavage kobs at 640 uM GlcN6P" result="0.000129 s⁻¹"
sequence_chain="AUAAAAGCGCCAGAACUACAGAAAUGUAGUUGCCGAGGAGGAGGUUUAUCGAAUUUUCGGCGGAGGCCUCCAAA [A33C U65G]" recorded_metric="self-cleavage kobs at 640 uM GlcN6P" result="< 1e-05 s⁻¹"
sequence_chain="AUAAAAGCGACAGAACUACAGAAAUGUAGUUGACGAGAAGUAGAUUUAUCGAAUUUUCUGCGGAUGCCUCCAAA [C10A G38A G41U G44A G59U]" recorded_metric="self-cleavage kobs at 640 uM GlcN6P" result="< 1e-05 s⁻¹"
sequence_chain="AUAAAAGCGCCAGAACUACAGAAAUGUAGUUGACUAGGAGGAGGUUUAUCGAAUUUUCGGCGGUUGCCUCCAAA [G35U A64U]" recorded_metric="self-cleavage kobs at 640 uM GlcN6P" result="< 1e-05 s⁻¹"
sequence_chain="AUAAAAGCGCCAGAACUACAGAAAUGUAGUUGAUGAGGAGGAGCUUUAUCGAAUUUUCGGCGUCUGCCUCCAAA [C34U G44C G63U A64C]" recorded_metric="self-cleavage kobs at 640 uM GlcN6P" result="< 1e-05 s⁻¹"
sequence_chain="AUAAAAGCGCCAGAACUACAGAAAUGUAGUUGACGAGGAUCAGGUUUAUCGAAUUUUCGGCGGAUGCCUACAAA [G40U G41C C70A]" recorded_metric="self-cleavage kobs at 640 uM GlcN6P" result="6.65e-05 s⁻¹"
sequence_chain="AUAAAAGCGCCAGAACUACAGAAAUGUAGUUGACGAGGAGGAGGUUUAUCGAAUUUUCGGCGGAUGUCUCUAAA [C67U C71U]" recorded_metric="self-cleavage kobs at 640 uM GlcN6P" result="0.000403 s⁻¹"
sequence_chain="AUAAAAGCGCCAGUACUACAGAAAUGUAGUUGACGAGGAGGAGGUGUAUCGAAUUUUCGGCGGAUGCCUCCAAA [A14U U46G]" recorded_metric="self-cleavage kobs at 640 uM GlcN6P" result="0.000293 s⁻¹"
sequence_chain="AUAAAAGCGCCAGAACUACAGAAAUGUACUUGACGAGGAGGAGGUUUAUCGAAUUUUCGGCGGAGGCCUCCAAA [G29C U65G]" recorded_metric="self-cleavage kobs at 640 uM GlcN6P" result="0.000115 s⁻¹"
sequence_chain="AUAAAAGCGCCCGAACUACAGAAAUGUAGUUGACGAGGAGGAGGUUUAUCGAAUAUUCGGCGGAUGCCUCCAAA [A12C U55A]" recorded_metric="self-cleavage kobs at 640 uM GlcN6P" result="0.00819 s⁻¹"
sequence_chain="AUAAAAGCGCCAGAACUACAGAAAUGUAGUUGACGAGGAGGAGGUUUUUCGAAUUUUCAGCGGAUGUCUCCAAA [A48U G59A C67U]" recorded_metric="self-cleavage kobs at 640 uM GlcN6P" result="< 1e-05 s⁻¹"
sequence_chain="AUAAAAGCGCCAGGACUACAGAAAUGUAGUUGACGAGGAGGAGGUUUAUCGAAUUGUCGGCGGAUGCCUCCAAA [A14G U56G]" recorded_metric="self-cleavage kobs at 640 uM GlcN6P" result="0.0223 s⁻¹"
sequence_chain="AUAAAAGCGCCAGAACUACAGAAAUGUAGUUGACGAGGAUGUGGUUUAUCGAAUUUUCGGCGGAUGCCUCCAAA [G40U A42U]" recorded_metric="self-cleavage kobs at 640 uM GlcN6P" result="4.15e-05 s⁻¹"
sequence_chain="AUAAAAGCGCCAGAACUACAGAAAUGUAAUUGACGAGGAAGAGGUUUAUCGAAUUUUCGGCGGGUGCCUCCAAA [G29A G40A A64G]" recorded_metric="self-cleavage kobs at 640 uM GlcN6P" result="5.47e-05 s⁻¹"
